tested on: HT-1080; assay: Antiproliferative activity against HT1080 (human fibrosarcoma) cell line.; type: functional, cell-based
measuredParameter: IC50 (nM)

Past entries and their recorded results:
smilesRepr: Cn1cc(C(=O)NCCCCCCC(=O)NO)c2ccccc21
measuredTarget: HT-1080
measuredParameter: IC50
resultValue: 780
//
smilesRepr: O=C(CCCCCCNC(=O)c1cn(-c2ccccc2)c2ccccc12)NO
measuredTarget: HT-1080
measuredParameter: IC50
resultValue: 2500
//
smilesRepr: COc1ccc2oc(C(=O)NCCCCCCC(=O)NO)cc2c1
measuredTarget: HT-1080
measuredParameter: IC50
resultValue: 380
//
smilesRepr: O=C(CCCCCCNC(=O)c1cc2cc(F)ccc2[nH]1)NO
measuredTarget: HT-1080
measuredParameter: IC50
resultValue: 480
//
smilesRepr: O=C(CCCCCCNC(=O)c1cn(Cc2ccccc2)c2ccccc12)NO
measuredTarget: HT-1080
measuredParameter: IC50
resultValue: 1900

[I] COc1ccc2cc(C(=O)NCCCCCCC(=O)NO)[nH]c2c1
[II] O=C(CCCCCCNC(=O)c1cn(-c2ccc(F)cc2)c2ccccc12)NO
[III] Cc1ccc2[nH]c(C(=O)NCCCCCCC(=O)NO)cc2c1
## Task Rank the 3 compounds: largest IC50 first, smallest last. List each label, following the requested order.
## Result II, I, III

----------
biological target: Histone deacetylase (HDAC1 and HDAC2) (Homo sapiens, UniProt Q13547+Q92769); assay: Inhibitory activity was tested against histone deacetylase (HDAC).; type: protein assay
measuredParameter: IC50 (nM)

Worked cases, answers included:
compound: COc1cc(OC)c2cc(C(=O)NCCCCCCC(=O)NO)[nH]c2c1
displayUnit: nM
IC50: 3.1
//
compound: O=C(CCCCCCNC(=O)c1cc2cc(OCc3ccccc3)ccc2[nH]1)NO
displayUnit: nM
IC50: 13.6
//
compound: COc1cccc2[nH]c(C(=O)NCCCCCCC(=O)NO)cc12
displayUnit: nM
IC50: 3.1
//
compound: COc1ccc2[nH]c(C(=O)NCCCCCCC(=O)NO)cc2c1
displayUnit: nM
IC50: 6.5
//
compound: O=C(CCCCCCNC(=O)c1cc2ccccc2[nH]1)NO
displayUnit: nM
IC50: 14.6
//
compound: O=C(CCCCCCNC(=O)c1cccc2cc[nH]c12)NO
displayUnit: nM
IC50: 41
//
compound: O=C(CCCCCNC(=O)c1ccc2[nH]ccc2c1)NO
displayUnit: nM
IC50: 17
//
compound: O=C(CCCCCCNC(=O)c1c[nH]c2ccccc12)NO
displayUnit: nM
IC50: 37.5

[I] O=C(CCCCCCNC(=O)c1cc2cc(OC(F)(F)F)ccc2[nH]1)NO
[II] O=C(CCCCCNC(=O)c1c[nH]c2ccccc12)NO
## Task Which item exceeds the other in IC50, I or II ? Choose, then provide that item's label.
## Result II

----------
tested on: HT-1080; test: Antiproliferative activity against HT1080 (human fibrosarcoma) cell line.; assay type: functional, cell-based
pIC50: −log10 of the molar value.
measuredParameter: pIC50

smilesRepr: Cn1c(C(=O)NCCCCCCC(=O)NO)cc2ccccc21
measuredParameter: pIC50
resultValue: 6.08
//
smilesRepr: O=C(CCCCCCNC(=O)c1cc2ccccc2o1)NO
measuredParameter: pIC50
resultValue: 6.12
//
smilesRepr: COc1cccc2[nH]c(C(=O)NCCCCCCC(=O)NO)cc12
measuredParameter: pIC50
resultValue: 6.92
//
smilesRepr: COc1ccc2[nH]c(C(=O)NCCCCCCC(=O)NO)cc2c1
measuredParameter: pIC50
resultValue: 6.14
//
smilesRepr: O=C(CCCCCCNC(=O)c1cc2cc(OCc3ccccc3)ccc2[nH]1)NO
measuredParameter: pIC50
resultValue: 5.82
//
smilesRepr: O=C(CCCCCCNC(=O)c1cc2cc(Br)ccc2[nH]1)NO
measuredParameter: pIC50
resultValue: 6.32
//
smilesRepr: COc1cc(OC)c2cc(C(=O)NCCCCCCC(=O)NO)[nH]c2c1
measuredParameter: pIC50
resultValue: 6.59
//
smilesRepr: O=C(CCCCCCNC(=O)c1cc2cc(Cl)ccc2o1)NO
measuredParameter: pIC50
resultValue: 6.74
//
smilesRepr: O=C(CCCCCCNC(=O)c1cn(-c2ccc(Br)cc2)c2ccccc12)NO
measuredParameter: pIC50
resultValue: 6.31
//
smilesRepr: O=C(CCCCCCNC(=O)c1cc2cc(OC(F)(F)F)ccc2[nH]1)NO
measuredParameter: pIC50
resultValue: 6.05
//
smilesRepr: COc1cccc2cc(C(=O)NCCCCCCC(=O)NO)oc12
measuredParameter: pIC50
resultValue: 6.15

Data provenance: ChEMBL document CHEMBL1136519
